Where do the numbers come from? From patent US8247211B2.

# System: Staphylococcus sp.
# assay summary: In vitro antibacterial evaluation: minimum inhibitory concentration (MIC), broth dilution method
# Assay type: cell-based
# test conditions: broth dilution, 5×10^5 CFU/mL, 18 hours at 35° C.
MIC Staphylococcus aureus (GC 3051) overview
Write the number in µg/mL without appending the unit.

Problem: Can you look up the measured MIC Staphylococcus aureus (GC 3051) of COc1cc(OC)cc(C2OCC3OC(OC4C(CO)OC(Oc5ccc(CC6NC(=O)C(C(C)c7ccccc7)NC(=O)CNC(=O)C(CO)NC(=O)C(C(O)C7CNC(=N)N7C7OC(CO)C(O)C(O)C7O)NC(=O)C(C(O)C7CNC(=N)N7)NC6=O)cc5)C(O)C4O)C(O)C(O)C3O2)c1 (stereo not shown) for me?
Result: 2

Problem: Can you look up the measured MIC Staphylococcus aureus (GC 3051) of CC(c1ccccc1)C1NC(=O)CNC(=O)C(CO)NC(=O)C(C(O)C2CNC(=N)N2C2OC(CO)C(O)C(O)C2O)NC(=O)C(C(O)C2CNC(=N)N2)NC(=O)C(Cc2ccc(OC3OC(CO)C(OC4OC5COC(c6cccc(Cl)c6)OC5C(O)C4O)C(O)C3O)cc2)NC1=O (stereo not shown) for me?
Result: 2

Problem: Can you look up the measured MIC Staphylococcus aureus (GC 3051) of CC(c1ccccc1)C1NC(=O)CNC(=O)C(CO)NC(=O)C(C(O)C2CNC(=N)N2C2OC(CO)C(O)C(O)C2O)NC(=O)C(C(O)C2CNC(=NC(=O)C(C)(C)C)N2)NC(=O)C(Cc2ccc(OC3OC(CO)C(OC4OC(CO)C(O)C(O)C4O)C(O)C3O)cc2)NC1=O (stereo not shown) for me?
Result: 0.5

Problem: Can you look up the measured MIC Staphylococcus aureus (GC 3051) of CC(=O)n1cc(C2OCC3OC(OC4C(CO)OC(Oc5ccc(CC6NC(=O)C(C(C)c7ccccc7)NC(=O)CNC(=O)C(CO)NC(=O)C(C(O)C7CNC(=N)N7C7OC(CO)C(O)C(O)C7O)NC(=O)C(C(O)C7CNC(=N)N7)NC6=O)cc5)C(O)C4O)C(O)C(O)C3O2)c2ccccc21 (stereo not shown) for me?
Result: 8
